# System: Endothelin-converting enzyme 2 (Homo sapiens)
# Sequence (P0DPD6 whole entry): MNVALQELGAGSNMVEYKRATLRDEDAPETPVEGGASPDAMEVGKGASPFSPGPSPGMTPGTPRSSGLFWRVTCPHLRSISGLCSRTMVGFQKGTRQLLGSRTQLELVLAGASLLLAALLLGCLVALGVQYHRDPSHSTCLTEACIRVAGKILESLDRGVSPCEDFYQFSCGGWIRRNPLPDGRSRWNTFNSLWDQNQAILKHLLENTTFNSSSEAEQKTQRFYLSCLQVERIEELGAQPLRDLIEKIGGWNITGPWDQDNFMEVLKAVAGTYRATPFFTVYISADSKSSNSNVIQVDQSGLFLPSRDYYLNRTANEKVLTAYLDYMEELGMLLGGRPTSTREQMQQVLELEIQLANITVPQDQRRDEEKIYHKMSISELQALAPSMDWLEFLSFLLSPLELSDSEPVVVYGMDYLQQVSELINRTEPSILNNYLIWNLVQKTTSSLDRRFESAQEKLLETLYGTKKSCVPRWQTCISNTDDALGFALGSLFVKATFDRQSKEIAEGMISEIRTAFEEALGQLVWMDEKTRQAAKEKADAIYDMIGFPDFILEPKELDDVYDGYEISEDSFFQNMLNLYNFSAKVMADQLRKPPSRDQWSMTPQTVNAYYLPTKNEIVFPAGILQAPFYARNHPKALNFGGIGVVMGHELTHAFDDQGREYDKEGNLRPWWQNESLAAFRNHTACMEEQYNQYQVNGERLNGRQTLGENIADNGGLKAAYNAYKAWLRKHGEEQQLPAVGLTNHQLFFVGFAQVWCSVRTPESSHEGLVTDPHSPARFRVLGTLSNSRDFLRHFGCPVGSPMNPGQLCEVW
# Experimental protocol: Reduction of recombinant ECE2 activity measured by McaBk2 fluorescent substrate hydrolysis
Endpoint label: IC50 (µM)

Sample records with IC50:
INSERT INTO measurements (sample_smiles, assay_value) VALUES
  ('COc1cccc(/C=C/c2ccc3cccc(O)c3n2)c1O', 32.9),
  ('Oc1ccccc1/C=C\c1ccc2ccccc2n1', 4.63),
  ('O=C(Cc1ccc2nccnc2c1)N1CCCC1', 5.83);

1: Oc1ccccc1/C=C/c1ccc2ccccc2n1
2: COc1cccc(/C=C/c2ccc3cccc(O)c3n2)c1
Which gives the smaller IC50 number: 1 or 2 ? Please identify the chosen entry by its label. 1

Where these numbers come from: ChEMBL document CHEMBL1150762
